The reported measurements were obtained from PubChem BioAssay.

Provide the recorded composite z-score for the entries that follow.
- assayed_target: Torsin-1A-interacting protein 1 (Homo sapiens) (UniProt Q5JTV8)
- Sequence (Q5JTV8 whole entry, looked up): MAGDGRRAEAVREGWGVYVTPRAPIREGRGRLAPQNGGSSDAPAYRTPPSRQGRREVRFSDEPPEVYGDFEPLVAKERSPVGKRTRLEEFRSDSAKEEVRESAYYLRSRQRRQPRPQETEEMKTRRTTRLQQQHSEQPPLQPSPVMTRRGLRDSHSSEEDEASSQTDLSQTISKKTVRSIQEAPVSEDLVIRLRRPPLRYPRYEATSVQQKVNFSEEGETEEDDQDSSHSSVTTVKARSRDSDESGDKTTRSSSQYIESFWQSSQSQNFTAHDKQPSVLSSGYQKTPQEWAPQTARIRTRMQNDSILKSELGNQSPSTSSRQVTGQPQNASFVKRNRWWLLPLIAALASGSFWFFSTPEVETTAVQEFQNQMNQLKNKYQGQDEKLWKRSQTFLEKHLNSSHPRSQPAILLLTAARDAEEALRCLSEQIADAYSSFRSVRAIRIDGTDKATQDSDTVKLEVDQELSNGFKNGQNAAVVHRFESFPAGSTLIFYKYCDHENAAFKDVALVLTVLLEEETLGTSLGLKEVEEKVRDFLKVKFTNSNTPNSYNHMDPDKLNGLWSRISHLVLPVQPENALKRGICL
- procedure_details: LAP1 binders from COS7 cell lysate, primary screen, small-molecule microarray, 635/667 nm fluorescence (AID 1116)
- test_settings: COS7-hLAP1 lysate binding, 635 nm fluorescence, higher = more signal
One number for each entry.

// solved cases for composite z-score follow
1) CCN1C(=O)[C@H]2[C@H]3[C@H](O)[C@H](O)CC(=NO[C@@H]4O[C@H](CO)[C@@H](O)[C@H](O)[C@H]4O)[C@H]3CC[C@H]2C1=O: 0.196
2) CCOC(=O)[C@H](Cc1ccccc1)NC(=O)CCC1CC(OC(=O)NCc2cccc3ccccc23)CC2(CCCC(COC(=O)NCC3CCCCC3)O2)O1 (some centres undefined): 0.128
3) COC(=O)C(C(=O)OC)C1CCCC(=O)C1 (centres undefined): 0.526
4) CC(CCC(=O)OC[C@H]1O[C@H](C#Cc2ccccc2)C=C[C@@H]1Oc1ccc(C)cc1)=NO[C@@H](C)c1cc(-c2c(C)cc(C)cc2C)no1: 0.328

Field: composite z-score. Fill in for each record below.
1. CCCNC(=O)OC[C@H]1O[C@H](CCON=C2c3cc(OC)ccc3O[C@H](c3cccc(OC)c3)[C@H]2O)C=C[C@@H]1Oc1ccc(OC)cc1
2. CCOC(=O)[C@H](Cc1ccccc1)NC(=O)CCC1CC(OC(=O)NCc2ccc3c(c2)OCO3)CC2(CCCC(COC(=O)NCCc3ccc(Cl)cc3)O2)O1 (some centres undefined)
3. COc1ccc(COC(=O)NN=C2C[C@@H](O)[C@@H](O)[C@@H]3[C@@H]4C(=O)N(C[C@@H]5CCCO5)C(=O)[C@@H]4CC[C@H]23)cc1
4. CC(C)[C@@H](OCc1ccccc1)[C@H](C)CON=C1[C@H]2CCn3c(=O)n(-c4ccccc4)c(=O)n3[C@H]2[C@H](O)[C@@H]2O[C@H]12

1: 1.28; 2: -0.0764; 3: 0.656; 4: -0.005

Field: composite z-score. Fill in for each record below.
1. C#CCCCON=C1C[C@@H](O)[C@@H](O)[C@@H]2[C@@H]3C(=O)N(CC)C(=O)[C@@H]3CC[C@H]12
2. COC(=O)CC=C1c2ccccc2[C@H](OC)[C@H]1C
3. CCOC(=O)[C@H](Cc1ccccc1)NC(=O)CCC1CC(OC(=O)NCc2ccc3c(c2)OCO3)CC2(CCCC(COC(=O)NCCCN3CCCC3=O)O2)O1 (some centres undefined)
4. COC(=O)CC=C[C@@H](C)[C@@H](C=NOC(C)CN1CCCCc2nc(C)c(C)cc21)OC (some centres undefined)
5. C[C@@H](c1ccccc1)N1C(=O)[C@H]2[C@H]3[C@H](O)[C@H](O)CC(=NOCc4ccccc4)[C@@H]3CC[C@H]2C1=O

[0.779, -0.035, 0.799, 0.449, 0.348]

Would you mind telling me what composite z-score value was observed for O=C1[C@H]2[C@H]3[C@H](O)[C@H](O)CC(=NOC[C@@H](O)COCc4ccco4)[C@@H]3CC[C@H]2C(=O)N1C1CCCCC1 ?
0.289

###

- procedure_details: small-molecule binders of probe aLefty1, primary screen, biochemical, small-molecule microarray, 635/667 nm fluorescence (AID 1153);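 note: score merges spot fluorescence with signal-to-noise ratio from the scanned slide images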
- test_settings: higher = more signal
Provide the recorded composite z-score for the entries that follow.
Give bare numbers.

1. C[C@H]1CC[C@@H](C(=O)O)N[C@@H]1c1ccc(C#Cc2ccccc2)cc1: -0.101
2. CC(CCN1CCc2nc(-c3ccccc3)c(-c3ccccc3)cc2C1)=NOC(C)CN1CCCc2nc(C)c(C)cc21 (centres undefined): 0.0956
3. COCC#Cc1ccc([C@@H]2N[C@H](C(=O)O)CC[C@H]2C)cc1: -0.194
4. C#CCCCON=C1C[C@@H](O)[C@@H](O)[C@@H]2[C@@H]3C(=O)N([C@@H](C)c4ccccc4)C(=O)[C@@H]3CC[C@@H]12: 0.0824
5. CON=C(C)CCN1CCc2nc(-c3ccccc3)c(-c3ccccc3)cc2C1: -0.0303
6. CO[C@@H]1COC(=O)[C@H](COCc2ccccc2)NC(=O)CC=C[C@@H](C)[C@H](OC)COC(=O)[C@@H](C)NC(=O)CC=C[C@H]1C: -0.193

Field: composite z-score. Fill in for each record below.
1. CC1(C)O[C@H]2OC([C@H](O)CON3C(=O)c4ccccc4C3=O)[C@H](O)[C@H]2O1 (some centres undefined)
2. O=C(NCCC[N+]1=CC=NC1c1ccccc1)N1CCCc2nc(-c3ccc(Br)cc3)ccc21 (centres undefined)
3. C=CC[C@@H]1C=C[C@H](ON=C(C)CCN2CCCCc3nc(C)c(C)cc32)[C@@H](CO)O1

1. -0.352
2. -0.164
3. -0.0547

###

- procedure_details: cell viability in Huh7 cells, primary screen, cytotoxicity control for HCV replication inhibitor project, CellTiter-Glo luminescence, basal, 48 h (AID 1143);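 note: Huh7 hepatoma cells carrying a hepatitis C replication reporter with no stimulus; test concentration not given here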
- test_settings: Huh7 HCV replicon, higher = more signal, called active from +8 up or from −8 down
reported_property: z-score
One number for each entry.

// solved cases for z-score follow
1. O=C1C=C[C@@H](O)[C@@H]2[C@@H]3C(=O)N(C4CCCCC4)C(=O)[C@@H]3CC[C@@H]12: -2.62
2. COC(=O)[C@H](CCSC)NC(=O)CC=C[C@@H](C)CO: -0.62
3. COC(=O)CC=C[C@@H](C)[C@@H](C=NOC[C@@H](C)[C@H](OCc1ccccc1)C(C)C)NS(=O)(=O)c1ccc(C)cc1: -0.7
4. CCN1C(=O)[C@H]2[C@H]3[C@H](O)[C@H](O)CC(=NO[C@H](C)c4cn([C@@H]5COC[C@H]5O)nn4)[C@@H]3CC[C@H]2C1=O: 0.654
5. CC(CCC(=O)OC[C@H]1O[C@H](C#Cc2ccccc2)C=C[C@@H]1Oc1ccc(C)cc1)=NO[C@H](C)c1cn([C@@H]2COC[C@H]2O)nn1: -0.783

Field: z-score. Fill in for each record below.
1. C[C@@H]1CC[C@H]2C(=O)OC(CN3C(=O)c4ccccc4C3=O)CN2[C@H]1c1ccc(Br)cc1 (stereo partly specified)
2. C[C@@H]1CC[C@H]2C(=O)O[C@@H](CN=[N+]=[N-])CN2[C@H]1c1ccc(Br)cc1
3. CCOC(=O)CCN1C(=O)[C@H]2[C@H]3[C@H](O)[C@H](O)CC(=NO[C@@H]4O[C@H](CO)[C@@H](O)[C@H](O)[C@H]4O)[C@H]3CC[C@H]2C1=O

0.135
-3.67
0.38

Field: z-score. Fill in for each record below.
1. COC(=O)[C@H](C)NC(=O)CCC1CC(OC(=O)NCc2cccc3ccccc23)CC2(CCCC(COC(=O)NCCc3ccccc3OC)O2)O1 (stereo partly specified)
2. COc1ccc(OC[C@H]2CN3[C@@H](CC[C@@H](C)[C@@H]3c3ccc(Br)cc3)C(=O)O2)cc1
3. CCOC(=O)[C@H](CC(C)C)NC(=O)CCC1CC(OC(=O)NCCc2ccc(F)cc2)CC2(CCCC(COC(=O)NCc3cccc(C(F)(F)F)c3)O2)O1 (stereo partly specified)

1. -0.701
2. -0.202
3. 0.215

Field: z-score. Fill in for each record below.
1. O=C1[C@H]2[C@H]3[C@H](O)[C@H](O)CC(=NO[C@@H]4O[C@H](CO)[C@@H](O)[C@H](O)[C@H]4O)[C@@H]3CC[C@H]2C(=O)N1c1cccc(Oc2ccccc2)c1
2. Cc1ccc(S(=O)(=O)N[C@@H]2COC(=O)CC=C[C@@H](C)[C@H](NS(=O)(=O)c3ccc(C)cc3)COC(=O)[C@H](C)NC(=O)CC=C[C@H]2C)cc1
3. Cc1cc(C)c(-c2cc([C@H](C)ON=C[C@@H](C)[C@H](OCc3ccccc3)C(C)C)on2)c(C)c1

[0.353, 0.218, -0.295]

###

- procedure_details: basal MM1S mitochondrial membrane potential changes, profiling panel, cell-based, JC-1 fluorescence, 24 h, 100 nL compound (AID 1170); note: test concentration not given here
- test_settings: higher = more signal
reported_property: z-score
One number for each entry.

// solved cases for z-score follow
1) CC(=O)OC[C@H]1O[C@H](C#CCCc2ccccc2)C=C[C@@H]1OC(C)=O: -1.11
2) C[C@H]1CC[C@H]2C(=O)O[C@H](CO)CN2[C@@H]1c1ccc(Br)cc1: -0.434
3) CCN1C(=O)[C@H]2[C@H]3[C@H](O)[C@H](O)CC(=NO[C@H](C)c4cn([C@H](CO)Cc5ccccc5)nn4)[C@@H]3CC[C@H]2C1=O: -0.343
4) COC(=O)[C@H](C)NC(=O)CCC1CC(OC(=O)NCc2cccc3ccccc23)CC2(CCCC(COC(=O)NCCc3ccccc3OC)O2)O1 (stereo partly drawn): -1.33
5) CCCC[C@H]1CN2[C@@H](CC[C@@H](C)[C@@H]2c2ccc(Br)cc2)C(=O)O1: 0.94

Field: z-score. Fill in for each record below.
1. COC(=O)[C@H](C)NC(=O)CCC1CC(OC(=O)NCc2cccc3ccccc23)CC2(CCCC(COC(=O)NCCCN3CCCC3=O)O2)O1 (stereo partly drawn)
2. COc1ccc(O[C@H]2C=C[C@@H](c3ccccc3)O[C@@H]2CO)cc1
3. C=CC[C@@H]1C=C[C@H](Oc2ccc(C)cc2)[C@@H](COC(=O)NCc2cccc3ccccc23)O1

-0.394
-0.42
0.147
